A collection of compounds and their measured TGI
test system: UACC-62 melanoma; test: NCI tumour cell line growth inhibition, 48 h
Where a SMILES comes first, the peptide text is derived from it. [ ]: non-standard residue; d: D form. The star is where a group is joined. Bn2Val = CC(C)[C@@H](C(=O)*)N(Cc1ccccc1)Cc1ccccc1; NHPiperonyl = c1cc2c(cc1CN*)OCO2; NMeV = CN[C@H](C(=O)O)C(C)C; dNMeA = CN[C@H](C)C(=O)O

| compound | TGI |
| --- | --- |
| O=C(c1ccc(-c2ccccc2)cc1)N(Cc1cccnc1)C(=S)N(Cc1cccnc1)C(=O)c1ccc(-c2ccccc2)cc1 | > 100 µM |
| Cc1cccc(-c2cccc(COCc3cccc(-c4cccc(CO)n4)n3)n2)n1 | > 50 µM |
| COc1ccc2nc(-c3ccc(Cl)cc3)cc(-c3nnc(SCC(=O)Nc4ccc(/C(C)=N\O)cc4)o3)c2c1 | 9.93 µM |
| O=C1/C(=N/N=C(c2ccccc2)c2ccccc2)c2ccccc2-c2ccccc21 | > 100 µM |
| CC(=O)O[C@H]1C[C@H]2[C@@H]([C@H](OC(C)=O)C[C@@H]3CC4(CC[C@@]32C)OOC2(CCCCC2)OO4)[C@@H]2CC[C@H]([C@H](C)CCC(N)=O)[C@@]12C | 6.31 µM |
| Nc1nc2ccccc2c2[nH]c3ccccc3c12 | 27.3 µM |
| O=S1(=O)OCc2ccccc21 | > 100 µM |
| Nc1c(C(=O)c2cccc(C(O)(CO)CO)c2)cnn1-c1ccc(F)cc1 | > 25 µM |
| COc1cccc([C@@H]2C/C(=N\NC(=O)C(=O)N[C@@H](C)c3ccccc3)c3cc4c(cc3N2)OCO4)c1 | > 100 µM |
| O=C(CC(O)c1cccnc1)CC(O)c1cccnc1 (stereo not drawn) | 32.2 µM |
| CN(C)CCNC(=O)c1ccccc1Nc1c(Cl)cccc1Cl | 31.4 µM |
| CSC1=C(C(=O)N(COCC[Si](C)(C)C)c2ccccc2Br)CCC(C(C)(C)C)C1 (stereo not drawn) | 39.9 µM |
| CC(=O)OC1COC(n2c(O)c(N=Nc3ccc([N+](=O)[O-])cc3)c3cc(Br)c([N+](=O)[O-])cc32)C(OC(C)=O)C1OC(C)=O (stereo not drawn) | 36.6 µM |
| CCOc1cccc2sc(N)nc12 | > 100 µM |
| COC(=O)C12OCC34C(CC5C(C)C6=CC(=O)OC6=CC5(C)C3C(O)C1O)OC(=O)C(OC(C)=O)C24 (stereo not drawn) | 21.9 µM |
| CC1OC1P(=O)(O)O (stereo not drawn) | > 100 µM |
| COc1ccc2c(c1)CC[C@@H]1C2CC[C@]2(C)C(=N\O)/C(=N/O)CC12 (stereo partly drawn) | 26.6 µM |
| COc1cc(/C=C/C(=O)c2ccc(F)cc2)ccc1OCCCCOc1cc2c(cc1OC)C(=O)N1CCCC1C=N2 (stereo not drawn) | 11.4 µM |
| Cc1cc(N(CCC#N)CCC#N)ccc1/C=C(\NC(=O)/C=C/c1ccccc1)NC(=O)Nc1ccccc1C | > 100 µM |
| CC(C)[C@H](NC(=O)[C@H](C(C)C)N(Cc1ccccc1)Cc1ccccc1)C(=O)N(C)[C@H](C(=O)N1CCC[C@H]1C(=O)N(C)[C@H](C)C(=O)NCc1ccc2c(c1)OCO2)C(C)C (Bn2Val-V[NMeV]P[dNMeA]-NHPiperonyl) | > 74.2 µM |
| COc1ccc2c3c(ccc2c1)NC(C(=O)O)CC3 (stereo not drawn) | > 100 µM |
| Cn1c(=O)c2c(nc(N3CCOCC3)n2CCCNCC(O)c2ccc(O)c(O)c2)n(C)c1=O (stereo not drawn) | > 100 µM |
| CC(=O)N(CN1C(=O)CCC1C(=O)O)c1ccc(C)cc1 (stereo not drawn) | > 100 µM |
| c1ccc(C2(c3ccccc3)S/C(=C3/SC(c4ccccc4)(c4ccccc4)c4ccccc43)c3ccccc32)cc1 | > 100 µM |
| CC1(C)CCc2cc3c(cc2O1)OC(C)(C)CC3=O | > 100 µM |
| N=C(N)c1ccc(CS(=O)(=O)F)cc1 | > 100 µM |
| COc1ccc(-c2cnc(SCC(=O)c3c(C)n(C)n(-c4ccccc4)c3=O)n2-c2ccc(OC)cc2)cc1 | > 50 µM |
| CCCCCCCCCCCCCCCCCc1cc(Cl)nc(Cl)n1 | > 100 µM |
| Cc1ccc(N/N=C/C2=CC(C)(C)C(C#N)(C#N)C(O)=C2C#N)cc1 | > 100 µM |
| CC(SC(=S)N(C)C)C(=O)Nc1nnc(-c2ccc(Cl)cc2)o1 (stereo not drawn) | > 100 µM |
| Nc1ncnc2c1ncn2C1OC(CO)CC1O (stereo not drawn) | > 100 µM |
| O=C(/C=C/c1ccc[nH]1)c1ccccc1 | > 100 µM |
| CN(C)C(=O)C(NCCO)c1ccccc1 (stereo not drawn) | > 100 µM |
| CN(C)C=O.CN(C)C=O.CN1C(C(=O)Nc2ccccn2)=C([O-])c2ccccc2S1(=O)=O.CN1C(C(=O)Nc2ccccn2)=C([O-])c2ccccc2S1(=O)=O.[Cu+2] | 41.2 µM |
| C=C(C)[C@@H]1CC[C@]2(C(=O)N3CCN(C)CC3)CC[C@]3(C)[C@H](CC[C@@H]4[C@@]5(C)C/C(=C/c6ccncc6)[C@H](O)C(C)(C)[C@@H]5CC[C@]43C)[C@@H]12 | 27.9 µM |
| Cn1ncc2c(=O)[nH]c(-c3ccccc3)nc21 | > 100 µM |
| CCC1CCC2C3CC=C4CC(OC(C)=O)C(N)CC4(C)C3CCC12C (stereo not drawn) | 9.32 µM |
| Nc1nc(=O)c2[nH]cnc2n1O | > 100 µM |
